Catalogue of cytotoxicity at 10 µM values
assay-protocol: Toxicity liver stage against HepG2, at 10uM
Format: cell-based
Set-up: test concentration 10 uM, cell line HepG2-A16-CD81EGFP
measurement-conditions: human, HepG2-A16-CD81EGFP cells; read-out: INHIBITION
reported-metric: cytotoxicity at 10 µM (%)

molecule: Fc1ccc(CNc2ccccc2Cn2cncn2)cc1
assay-value: -0.719

molecule: O=C(CCc1nccs1)N1CCCC(n2cccn2)C1 (stereo unspecified)
assay-value: -14.4

molecule: Cc1ccc(C(CNC(=O)Nc2cn[nH]c2)N2CCOCC2)o1 (stereo unspecified)
assay-value: -24.8

molecule: Cc1cc(N2CCOC(CN)C2)nc(-c2ccccc2)n1 (stereo unspecified)
assay-value: -3.26

molecule: Cc1cc(N2CCN(C(=O)Cc3c(C)nc(C)[nH]c3=O)CC2)cc(C)n1
assay-value: 9.66

molecule: NC1(c2nc(-c3cccs3)cc(=O)[nH]2)CCCC1
assay-value: 4.19
